Source of measurements: the RNAGym collection of RNA variant scans (doi:10.7554/elife.80360)

B1: Hairpin Ribozyme (parent)
chain: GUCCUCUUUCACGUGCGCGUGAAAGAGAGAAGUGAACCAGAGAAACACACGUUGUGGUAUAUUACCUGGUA

variants of: B1; test: self-cleavage, relative activity (ratio to wild type); higher = more cleavage; co-transcriptional
Recorded self-cleavage determines the label; the label ranges are low group (below 0.1), middle group (0.1 to below 0.3), high group (0.3 or more)

Please report the category associated with U5C A24G , nothing else.
high group

How about this variant: U5A A24C
high group

How about this variant: A43C G68U
low group

How about this variant: U20A A49G
high group

How about this variant: A28U U63C
middle group

How about this variant: G19A A71U
high group

How about this variant: A44C G57U
low group

How about this variant: C48A U58G
middle group

How about this variant: G32U G54U
low group

How about this variant: A47G U62A
low group

How about this variant: A23G A41G
high group

How about this variant: G15A A24C
high group

How about this variant: U33A C37A
middle group

How about this variant: C18G C37A
middle group

How about this variant: A11C A71C
high group

How about this variant: U20C G68U
middle group

How about this variant: G32A U33C
middle group

How about this variant: G13U G69C
middle group

How about this variant: A36C U63C
middle group

How about this variant: U7A A11U
high group
